# Tested Target: MMP-12 (Homo sapiens, UniProt P39900)
# Sequence (P39900 106-268 limits assumed): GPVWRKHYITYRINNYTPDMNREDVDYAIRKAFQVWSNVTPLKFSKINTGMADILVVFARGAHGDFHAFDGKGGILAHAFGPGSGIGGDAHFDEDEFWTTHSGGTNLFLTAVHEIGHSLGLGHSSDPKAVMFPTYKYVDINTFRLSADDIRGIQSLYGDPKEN
# Test Details: Biomol MMP-12 colourimetric assay kit AK-402 (thiopeptolide substrate)
# Format: biochemical
# Condition Set: colourimetric kit, thiopeptolide substrate, 37° C., 414 nm; read-out: MMP-12 (Ki)
Parameter: Ki (nM)
Just the number please, in nM, no unit attached.

What value of measured Ki is listed for CC(=NO)C(C)(C)NCCC(CCNC(=O)CCCC(=O)NCCN1CCN(C2(c3ccc(Oc4ccc(Br)cc4)cc3)C(=O)NC(=O)NC2=O)CC1)CCNC(C)(C)C(C)=NO (stereo not shown) ?
157

* * *

For MMP-9 (Homo sapiens), measured pKi is reported for the entries below.
In textbook form, pKi equals minus log to base ten of the concentration in mol/L.

// below: answered compounds
1. CC(=NO)C(C)(C)NCCC(CCNC(=O)CCCC(=O)NCCN1CCN(C2(c3ccc(Oc4ccc(Br)cc4)cc3)C(=O)NC(=O)NC2=O)CC1)CCNC(C)(C)C(C)=NO (centres unmarked); 8.00
2. O=C1NC(=O)C(Nc2ccc(I)cc2)(c2ccc(Oc3ccc(Br)cc3)cc2)C(=O)N1; 7.70
3. CC(=NO)C(C)(C)NCCC(CCNC(=O)CCN1CCN(C2(c3ccc(Oc4ccc(Br)cc4)cc3)C(=O)NC(=O)NC2=O)CC1)CCNC(C)(C)C(C)=NO (centres unmarked); 8.52
4. O=C1NC(=O)C(c2ccc(Oc3ccc(Br)cc3)cc2)(N2CCN(CCCF)CC2)C(=O)N1; 8.70

Provide the documented pKi with MMP-9 (Homo sapiens) as the system for `O=C1NC(=O)C(c2ccc(Oc3ccc(Br)cc3)cc2)(N2CCN(C(=O)CSCCCF)CC2)C(=O)N1`
Sequence (P14780 107-444 limits assumed): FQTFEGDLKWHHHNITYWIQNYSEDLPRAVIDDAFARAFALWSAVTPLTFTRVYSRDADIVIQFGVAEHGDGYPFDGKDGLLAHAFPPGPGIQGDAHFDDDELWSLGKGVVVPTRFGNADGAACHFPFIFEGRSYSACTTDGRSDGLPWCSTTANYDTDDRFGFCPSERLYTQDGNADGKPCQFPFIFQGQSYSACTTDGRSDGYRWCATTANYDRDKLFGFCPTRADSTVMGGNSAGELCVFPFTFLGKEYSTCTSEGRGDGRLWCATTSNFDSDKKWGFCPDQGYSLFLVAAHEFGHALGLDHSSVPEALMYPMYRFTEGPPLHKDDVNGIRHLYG
9.52

* * *

# Tested Target: MMP-12 (Homo sapiens)
# Test Details: Biomol MMP-12 colourimetric assay kit AK-402 (thiopeptolide substrate)
# Format: biochemical
Parameter: pKi
In textbook form, pKi equals minus log to base ten of the concentration in mol/L.

Provide the documented pKi with MMP-12 (Homo sapiens) as the system for `O=C1NC(=O)C(c2ccc(Oc3ccc(Br)cc3)cc2)(N2CCN(C(=O)CSCCCF)CC2)C(=O)N1`
7.96

* * *

For MMP-2 (Homo sapiens, UniProt P08253), measured Ki is reported for the entries below.
I'd appreciate it if you wrote the number followed by its unit.

1) CC(=NO)C(C)(C)NCCC(CCNC(=O)CCN1CCN(C2(c3ccc(Oc4ccc(Br)cc4)cc3)C(=O)NC(=O)NC2=O)CC1)CCNC(C)(C)C(C)=NO (centres unmarked) [Compound 16]; 14 nM
2) O=C1NC(=O)C(Nc2ccc(I)cc2)(c2ccc(Oc3ccc(Br)cc3)cc2)C(=O)N1 [Compound 24]; 45 nM

What value of measured Ki is listed for CC(=NO)C(C)(C)NCCC(CCNC(=O)CCCC(=O)NCCN1CCN(C2(c3ccc(Oc4ccc(Br)cc4)cc3)C(=O)NC(=O)NC2=O)CC1)CCNC(C)(C)C(C)=NO (centres unmarked) [Compound 17] ?
29 nM

Subsequent entry: O=C1NC(=O)C(c2ccc(Oc3ccc(Br)cc3)cc2)(N2CCN(CCCF)CC2)C(=O)N1 [Compound 7]
11 nM

Subsequent entry: O=C1NC(=O)C(c2ccc(Oc3ccc(Br)cc3)cc2)(N2CCN(C(=O)CSCCCF)CC2)C(=O)N1 [Compound 9]
5 nM

Source of measurements: patent US20060120956A1
